Below, each entry is listed with its recorded protein stability index.
test: protein stability index of a GFP-peptide fusion (yeast GPS) (PSI 1-4); higher = more stable; sorted into four equal gates, so the index is relative within each strain; details: ubr1∆
Simply state the number, no unit and no words.

              sequenceentry  recordedvalue
0  PLSNEVFEISENNSDSN [SWI1]           2.98

Recorded protein stability index (sequence TLELSAQFRVPRYHSKN [SWP82] ): 2.74

Form: sequence = DPESRTQSYNNQNTLKE [POP1] ; protein stability index = 2.79

Lab book: protein stability index of ILADEMGLGKTLQTISF [ISW2] noted as 2.77

Notebook: IRCHREDCDLVIMALML [POP5] , protein stability index read as 2.81

Entry under test: DLIADTITNSSSSSDII [YML103C/NUP188] . Its protein stability index was 2.56

protein stability index for VKWVHMIIDEGHRMKNA [SNF2] is 3.11

====

experiment: protein stability index of a GFP-peptide fusion (yeast GPS) (PSI 1-4); higher = more stable; sorted into four equal gates, so the index is relative within each strain; details: pdr5∆
parameter: protein stability index
Write the number on its own, no unit after it.

Known protein stability index results, listed for orientation:
               sequenceentry                parameter  recordedvalue
0   NNKNNSITTGNDNENIV [MED2]  protein stability index           2.94
1   GLRAVRKNRYVILQSDL [RPT3]  protein stability index           3.06
2  EIEQNTELLDEFIAAVN [RPN10]  protein stability index           3.32

response.value for IPMSKTIKDLVGGKSTV [FAS2] (field: protein stability index) = 2.8

====

Recorded measurements of protein stability index, one per entry
assay: protein stability index of a GFP-peptide fusion (yeast GPS) (PSI 1-4); higher = more stable; sorted into four equal gates, so the index is relative within each strain; details: ubr1∆
Answer with the value's number alone.

In [3]: df
Out[3]:
              sequenceentry                parameter  recordedvalue
0  DLSWSKQTDTGITHFRA [PRP8]  protein stability index           3.02

Record DKIHARARGPMQVLTRQ [RPB2] . Reported protein stability index: 3.21

// recorded protein stability index for AGNSQITSGGFLLKAYI [SRB5] : 2.92

Recorded protein stability index (sequence QPQQQLGDMENNLEKYP [RTT102] ): 3.33

For this sequence ( QPAQPRESRIVSTEGNV [RPL21A] ), measured protein stability index is 2.87

Per the record, LIRLQMEKLDAKLNHLK [SWI3] has protein stability index of 3.1

====

In this section, each of the sequences is paired with its reported protein stability index.
test: protein stability index of a GFP-peptide fusion (yeast GPS) (PSI 1-4); higher = more stable; sorted into four equal gates, so the index is relative within each strain; conditions: san1∆

>>> print(df.to_string())
               sequenceentry  recordedvalue
0   LSSYQKKIIKCDEHMGL [PRE5]           2.19
1   SVEEVILERAYKKLDID [SNF2]           2.95
2  KNDLFVIWSEDNDEKLI [RPO21]            3.1
3   QLDSYLVNGFSQSQQKL [MED2]           2.38
4   EPENNTVIEGVKEESQP [SWI3]           3.08

Documented protein stability index of NANTGFSFGGTQTGQNT [YGL172W/NUP49] : 3.23

// sample DIDLETYSFIDNDRFNV [YML103C/NUP188] , its protein stability index was 2.46

According to the records, this sequence GIEHFDIPPPAIMKPYY [RPO31] displays protein stability index of 3.34

Reported protein stability index of VYTAIYNYCVNKSRSSG [CDC53] : 2.61
